Overview of reported CLR/RAMP2 IC50 across a group of binders:
Target: CLR/RAMP2 receptor (UniProt Q16602 23-461; O60895 43-175, limits assumed)
Sequence (Q16602 23-461 limits assumed, chain 1 of 2): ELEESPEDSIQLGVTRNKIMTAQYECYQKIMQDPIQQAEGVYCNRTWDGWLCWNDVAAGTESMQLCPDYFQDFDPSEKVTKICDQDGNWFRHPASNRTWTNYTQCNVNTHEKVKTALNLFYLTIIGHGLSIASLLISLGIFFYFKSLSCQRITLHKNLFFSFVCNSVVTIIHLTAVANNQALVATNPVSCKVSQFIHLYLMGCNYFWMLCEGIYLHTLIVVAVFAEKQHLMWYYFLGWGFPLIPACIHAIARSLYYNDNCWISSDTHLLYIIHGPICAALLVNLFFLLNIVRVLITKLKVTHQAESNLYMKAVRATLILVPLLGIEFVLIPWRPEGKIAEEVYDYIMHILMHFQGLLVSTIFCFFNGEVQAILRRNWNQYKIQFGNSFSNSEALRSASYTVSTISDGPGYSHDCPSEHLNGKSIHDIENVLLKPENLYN
Sequence (O60895 43-175 limits assumed, chain 2 of 2): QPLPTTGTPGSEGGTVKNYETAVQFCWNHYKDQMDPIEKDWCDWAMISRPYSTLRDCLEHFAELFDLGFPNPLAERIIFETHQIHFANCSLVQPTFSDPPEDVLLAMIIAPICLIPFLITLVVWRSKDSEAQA
Assay: cell-based or functional assay
* marks the point of attachment. Palmitoyl = CCCCCCCCCCCCCCCC(=O)*; miniPEG = mini-PEG spacer unit
Write the value in nM as a bare number.

Below: 3 binders and their reported CLR/RAMP2 IC50.
Binder	Unit tag	Assay result
Ac-TVQKLAHQIYQFTDKDKDNSAPVDPSSPHSY-NH2 [SEQ ID NO: 76]	nM	289
Ace-VTHRLAGLLSRFTDKDKDNVAPRSKISPQGY-NH2 [SEQ ID NO: 115]	nM	117
Palmitoyl-KVQNLSHRLWQLMGPAGSAPVDPSSPHSY-NH2 [SEQ ID NO: 120]	nM	85

Problem: Looking for the measured CLR/RAMP2 IC50 of Palmitoyl-KVQKLAHQIYQFTDKSAPVDPSSPHSY-NH2 [SEQ ID NO: 125] , can you help?
Solution: 7.1

Problem: Looking for the measured CLR/RAMP2 IC50 of Ace-TVQKLAHRLWQLMGPDKDNVAPRSKISPQGY-NH2 [SEQ ID NO: 116] , can you help?
Solution: 7.3

Problem: Looking for the measured CLR/RAMP2 IC50 of Palmitoyl-KVQKLAHQISAPVDPSSPHSY-NH2 [SEQ ID NO: 123] , can you help?
Solution: 50

Problem: Looking for the measured CLR/RAMP2 IC50 of miniPEG-K(Palmitoyl)VQKLAHQIYQFTDKDKDNSAPVDPSSPHSY-NH2 [SEQ ID NO: 78] , can you help?
Solution: 34

Problem: Looking for the measured CLR/RAMP2 IC50 of Palmitoyl-KVQKLAHQIYQFTDKDSAPVDPSSPHSY-NH2 [SEQ ID NO: 121] , can you help?
Solution: 4.9

Problem: Looking for the measured CLR/RAMP2 IC50 of Palmitoyl-TVQKLAHQIYQFTDKDKDNSAPVDPSSPHSY-NH2 [SEQ ID NO: 77] , can you help?
Solution: 47
